TESTED TARGET: N-type calcium channels (IMR-32 cells) (Homo sapiens, UniProt Q00975)
Sequence (Q00975 whole entry): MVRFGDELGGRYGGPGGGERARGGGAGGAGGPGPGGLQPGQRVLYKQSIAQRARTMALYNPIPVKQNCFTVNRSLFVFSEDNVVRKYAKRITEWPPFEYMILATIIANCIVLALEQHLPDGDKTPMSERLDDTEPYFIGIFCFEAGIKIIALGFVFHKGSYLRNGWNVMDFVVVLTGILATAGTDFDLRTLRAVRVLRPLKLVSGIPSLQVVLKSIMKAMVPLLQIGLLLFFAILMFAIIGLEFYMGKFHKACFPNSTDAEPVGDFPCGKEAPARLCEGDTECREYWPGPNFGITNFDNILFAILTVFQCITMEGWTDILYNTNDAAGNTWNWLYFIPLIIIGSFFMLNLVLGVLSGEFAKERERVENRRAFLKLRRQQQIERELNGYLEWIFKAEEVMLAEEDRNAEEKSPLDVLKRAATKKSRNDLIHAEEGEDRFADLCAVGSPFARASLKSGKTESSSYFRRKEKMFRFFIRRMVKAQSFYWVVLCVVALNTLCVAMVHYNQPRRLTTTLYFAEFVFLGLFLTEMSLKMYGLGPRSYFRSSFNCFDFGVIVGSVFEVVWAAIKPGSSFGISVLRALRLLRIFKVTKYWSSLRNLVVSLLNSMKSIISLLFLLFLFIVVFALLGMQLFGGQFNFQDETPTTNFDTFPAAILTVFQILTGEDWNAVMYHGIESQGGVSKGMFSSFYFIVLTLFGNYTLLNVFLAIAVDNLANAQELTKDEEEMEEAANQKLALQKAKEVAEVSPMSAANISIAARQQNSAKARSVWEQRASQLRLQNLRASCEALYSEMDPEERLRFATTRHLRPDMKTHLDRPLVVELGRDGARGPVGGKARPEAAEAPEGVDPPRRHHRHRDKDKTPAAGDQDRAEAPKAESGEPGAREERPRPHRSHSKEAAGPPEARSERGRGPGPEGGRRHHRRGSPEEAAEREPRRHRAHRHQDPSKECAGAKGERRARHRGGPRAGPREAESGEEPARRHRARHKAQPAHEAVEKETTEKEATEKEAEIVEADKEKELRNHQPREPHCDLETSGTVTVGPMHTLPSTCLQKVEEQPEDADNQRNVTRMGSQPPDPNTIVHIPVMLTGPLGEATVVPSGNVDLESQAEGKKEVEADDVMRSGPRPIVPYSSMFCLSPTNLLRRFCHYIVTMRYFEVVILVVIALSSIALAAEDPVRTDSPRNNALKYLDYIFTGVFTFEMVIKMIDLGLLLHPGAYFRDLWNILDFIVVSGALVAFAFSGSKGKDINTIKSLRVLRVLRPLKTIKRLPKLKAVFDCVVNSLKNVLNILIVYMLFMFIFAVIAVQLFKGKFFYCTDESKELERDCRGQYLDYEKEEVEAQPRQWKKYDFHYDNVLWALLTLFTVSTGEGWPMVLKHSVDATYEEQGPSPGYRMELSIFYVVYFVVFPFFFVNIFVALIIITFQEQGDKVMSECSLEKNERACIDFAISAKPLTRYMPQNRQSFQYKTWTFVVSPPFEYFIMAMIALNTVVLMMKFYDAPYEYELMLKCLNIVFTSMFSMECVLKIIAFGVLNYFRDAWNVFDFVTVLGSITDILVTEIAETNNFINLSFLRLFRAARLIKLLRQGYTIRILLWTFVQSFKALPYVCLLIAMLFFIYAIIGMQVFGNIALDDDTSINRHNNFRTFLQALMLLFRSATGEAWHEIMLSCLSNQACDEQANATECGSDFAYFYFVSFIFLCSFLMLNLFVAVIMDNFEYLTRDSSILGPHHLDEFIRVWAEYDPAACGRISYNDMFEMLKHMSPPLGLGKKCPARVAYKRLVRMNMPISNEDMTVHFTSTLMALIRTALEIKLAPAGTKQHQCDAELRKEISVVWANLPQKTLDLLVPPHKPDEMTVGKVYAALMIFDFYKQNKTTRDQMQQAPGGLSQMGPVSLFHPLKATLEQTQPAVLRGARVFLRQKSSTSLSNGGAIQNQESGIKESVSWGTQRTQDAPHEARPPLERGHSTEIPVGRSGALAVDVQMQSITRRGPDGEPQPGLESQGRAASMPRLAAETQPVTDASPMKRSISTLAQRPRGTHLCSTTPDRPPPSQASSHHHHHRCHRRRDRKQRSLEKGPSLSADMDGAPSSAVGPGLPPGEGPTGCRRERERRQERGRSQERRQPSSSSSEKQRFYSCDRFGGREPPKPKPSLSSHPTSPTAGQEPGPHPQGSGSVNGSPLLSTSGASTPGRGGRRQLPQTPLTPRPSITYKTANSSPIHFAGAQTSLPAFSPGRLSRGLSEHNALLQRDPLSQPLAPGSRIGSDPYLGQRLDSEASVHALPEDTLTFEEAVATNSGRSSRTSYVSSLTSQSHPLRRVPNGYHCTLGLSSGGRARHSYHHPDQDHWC
Sequence (P54289 25-944 partner limits assumed): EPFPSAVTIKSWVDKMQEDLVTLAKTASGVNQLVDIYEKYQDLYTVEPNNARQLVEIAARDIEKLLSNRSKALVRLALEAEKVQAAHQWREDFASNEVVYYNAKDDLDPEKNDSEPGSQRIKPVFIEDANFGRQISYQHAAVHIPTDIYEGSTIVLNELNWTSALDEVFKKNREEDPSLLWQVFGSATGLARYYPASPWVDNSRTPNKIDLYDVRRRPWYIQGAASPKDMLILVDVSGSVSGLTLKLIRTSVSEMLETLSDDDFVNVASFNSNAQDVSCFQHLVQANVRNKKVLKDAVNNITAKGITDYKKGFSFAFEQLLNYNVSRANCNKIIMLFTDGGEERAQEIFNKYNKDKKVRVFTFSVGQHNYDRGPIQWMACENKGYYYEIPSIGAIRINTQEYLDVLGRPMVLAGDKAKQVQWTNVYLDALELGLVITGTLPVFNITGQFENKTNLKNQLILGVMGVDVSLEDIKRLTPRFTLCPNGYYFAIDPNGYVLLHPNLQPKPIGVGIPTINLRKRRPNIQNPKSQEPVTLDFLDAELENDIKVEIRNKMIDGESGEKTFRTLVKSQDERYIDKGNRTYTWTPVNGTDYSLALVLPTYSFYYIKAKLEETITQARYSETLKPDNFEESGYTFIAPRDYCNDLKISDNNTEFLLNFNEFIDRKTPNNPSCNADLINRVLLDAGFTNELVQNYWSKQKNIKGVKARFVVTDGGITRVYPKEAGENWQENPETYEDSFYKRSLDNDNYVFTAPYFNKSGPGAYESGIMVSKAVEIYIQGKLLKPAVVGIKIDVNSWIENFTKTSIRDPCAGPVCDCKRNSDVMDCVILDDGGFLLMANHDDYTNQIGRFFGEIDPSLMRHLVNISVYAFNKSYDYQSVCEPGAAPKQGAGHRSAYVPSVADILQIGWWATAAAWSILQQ
Sequence (P54289 945-1103 partner limits assumed): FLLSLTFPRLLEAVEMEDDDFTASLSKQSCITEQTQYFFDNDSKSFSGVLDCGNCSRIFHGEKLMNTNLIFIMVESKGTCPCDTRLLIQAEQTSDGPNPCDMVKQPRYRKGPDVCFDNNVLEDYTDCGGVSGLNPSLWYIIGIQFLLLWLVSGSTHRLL
EXPERIMENT DESCRIPTION: N-type Ca2+ channel blocking potency in IMR-32 cells using fluorescent Ca2+ indicator Indo-1
ASSAY CONDITIONS: K+ depolarization, 5 μM nitrendipine present to block L-type channels, 10 min at 30° C., read-out: Inhibition of ^45 Ca^+2 Influx in IMR-32 Cells IC50
PROPERTY: log10 of IC50 (log10 of the value in nM)
Could you please treat all values as log10 of IC50 in nM?

Look over these answered cases.
CC(CCC(c1ccccc1)c1ccccc1)(c1ccc(O)c(CN2CCCCCC2)c1)c1ccc(O)c(CN2CCCCCC2)c1 [Example 6] = 2.87
CC(CCC(O)(c1ccccc1)c1ccccc1)(c1ccc(O)c(CN2CCCCCC2)c1)c1ccc(O)c(CN2CCCCCC2)c1 [Example 3] = 2.69
CC(NC(=O)c1ccccc1)C(c1ccc(O)c(CN2CCCCCC2)c1)c1ccc(O)c(CN2CCCCCC2)c1 (centres unmarked) [Example 21] = 4.15
CC(CCCN(Cc1ccccc1)Cc1ccccc1)(c1ccc(O)c(CN2CCCCCC2)c1)c1ccc(O)c(CN2CCCCCC2)c1 [Example 10] = 2.63

Now let's try a different one.
Request: Give recorded log10 of IC50. O=C(NCC(c1ccc(O)c(CN2CCCCCC2)c1)c1ccc(O)c(CN2CCCCCC2)c1)c1ccccc1 [Example 19]
Response: 4.23
